Origin of values: the supplement of paper PMC7595190

System: Kasumi-1
Assay: CellTox Green cytotoxicity fluorescence relative to DMSO vehicle (fold of vehicle RFU); higher = more cell death (loss of membrane integrity), active = 2 or more
Conditions: 0.01 µM; 72 h
recorded.metric: CellTox Green cytotoxicity fluorescence

- molecule: "CN[C@@H](C)C(=O)N[C@H](C(=O)N1CCC[C@H]1C(=O)Nc1snnc1-c1ccccc1)C1CCCCC1"
  measured.value: "0.94 (inactive)"
- molecule: "CCCCC(C=O)NC(=O)C(CC(C)C)NC(=O)C(CC(C)C)NC(C)=O (stereo not given)"
  measured.value: "0.999 (inactive)"
- molecule: "CC[C@@]1(O)C(=O)OCc2c1cc1n(c2=O)Cc2cc3cc(O)ccc3nc2-1 [(S)-10-Hydroxycamptothecin]"
  measured.value: "0.997 (inactive)"
- molecule: "CN1CCN(Cc2ccc(Nc3ncc(Cl)c(Nc4ccccc4S(=O)(=O)N(C)C)n3)cc2)CC1"
  measured.value: "0.961 (inactive)"
- molecule: "Cc1nn(C)c(COc2ccc(N3CCN(S(=O)(=O)N(C)C)CC3)cc2)c1-c1cccc2c(CCCOc3cccc4ccccc34)c(C(=O)O)n(CCN3CCOCC3)c12"
  measured.value: "0.976 (inactive)"

---

Each entry below carries its recorded CellTox Green cytotoxicity fluorescence.
Tested on: MV4-11
Experiment: CellTox Green cytotoxicity fluorescence relative to DMSO vehicle (fold of vehicle RFU); higher = more cell death (loss of membrane integrity), active = 2 or more
Conditions: 0.1 µM; 48 h

- compound: "O=C(O)CSc1cc(NS(=O)(=O)c2ccc(Br)cc2)c2ccccc2c1O"
  CellTox Green cytotoxicity fluorescence: 0.985
- compound: "Nc1cccc2c1C(=O)N(C1CCC(=O)NC1=O)C2=O (centres undefined) [Pomalidomide]"
  CellTox Green cytotoxicity fluorescence: 1.01
- compound: "CC[C@@]1(O)C(=O)OCc2c1cc1n(c2=O)Cc2cc3cc(O)ccc3nc2-1 [(S)-10-Hydroxycamptothecin]"
  CellTox Green cytotoxicity fluorescence: 1.65
- compound: "Cc1nc(Nc2ncc(C(=O)Nc3c(C)cccc3Cl)s2)cc(N2CCN(CCO)CC2)n1 [Dasatinib Monohydrate]"
  CellTox Green cytotoxicity fluorescence: 0.983

---

Test system: CMK
Assay: CellTox Green cytotoxicity fluorescence relative to DMSO vehicle (fold of vehicle RFU); higher = more cell death (loss of membrane integrity), active = 2 or more
Details: 0.01 µM; 24 h

- compound: "Fc1ccc(CNc2ncnc3ccc(F)cc23)cc1"
  CellTox Green cytotoxicity fluorescence: 0.96
- compound: "COc1nc(-c2ccc3c(c2)OCO3)n(-c2ccc(NC(=O)CSc3ccccc3)cc2)n1"
  CellTox Green cytotoxicity fluorescence: 1.03
- compound: "COCC[n+]1c2c(n(Cc3cnccn3)c1C)C(=O)c1ccccc1C2=O [Sepantronium Bromide]"
  CellTox Green cytotoxicity fluorescence: 0.916
- compound: "CC(C)CC(NC(=O)C(Cc1ccccc1)CC(O)C(Cc1ccccc1)NC(=O)OC(C)(C)C)C(=O)NC(Cc1ccccc1)C(N)=O (stereo not drawn)"
  CellTox Green cytotoxicity fluorescence: 1
- compound: "CNC(=O)c1ccccc1Nc1cc(Nc2ccc(N3CCOCC3)cc2OC)ncc1C(F)(F)F"
  CellTox Green cytotoxicity fluorescence: 0.924
- compound: "Nc1nc(F)nc2c1ncn2[C@@H]1O[C@H](CO)[C@@H](O)[C@@H]1O"
  CellTox Green cytotoxicity fluorescence: 1
- compound: "CN(C)CCCCC(=O)Nc1ccc(NC(=S)NC(=O)c2ccc(C(C)(C)C)cc2)cc1"
  CellTox Green cytotoxicity fluorescence: 0.978
- compound: "Cc1nc(Nc2ncc(C(=O)Nc3c(C)cccc3Cl)s2)cc(N2CCN(CCO)CC2)n1 [Dasatinib Monohydrate]"
  CellTox Green cytotoxicity fluorescence: 1.01

---

Quick list: CellTox Green cytotoxicity fluorescence per entry.
Test system: CMK
Test: CellTox Green cytotoxicity fluorescence relative to DMSO vehicle (fold of vehicle RFU); higher = more cell death (loss of membrane integrity), active = 2 or more
Settings: 0.1 µM; 24 h

- compound: "CC(C)c1cc2c(N3CCN(C4=NCC(C)(C)S4)CC3)ncnc2s1 [MI-3 (Menin-MLL Inhibitor)]"
  subject.of.test: "CMK"
  CellTox Green cytotoxicity fluorescence: 0.923
- compound: "CCCCCCCCCCCC1=C(O)C(=O)C=C(O)C1=O [Embelin]"
  subject.of.test: "CMK"
  CellTox Green cytotoxicity fluorescence: 0.994
- compound: "CN1CCN(CCCNc2ncc(Cl)c(-c3cc4c(C(=O)NC5CC5)cccc4s3)n2)CC1"
  subject.of.test: "CMK"
  CellTox Green cytotoxicity fluorescence: 0.97

---

We begin with a simple list: items and their reported CellTox Green cytotoxicity fluorescence.
Tested on: Kasumi-1
Assay: CellTox Green cytotoxicity fluorescence relative to DMSO vehicle (fold of vehicle RFU); higher = more cell death (loss of membrane integrity), active = 2 or more
Details: 0.01 µM; 72 h

- compound: "CC(C)[C@H](CO)Nc1nc(Nc2cccc(Cl)c2)c2ncn(C(C)C)c2n1 [Purvalanol A]"
  subject.of.test: "Kasumi-1"
  CellTox Green cytotoxicity fluorescence: 0.974
- compound: "CCCC[C@@H](C=O)NC(=O)[C@H](CC(C)C)NC(=O)OCc1ccccc1 [Calpeptin]"
  subject.of.test: "Kasumi-1"
  CellTox Green cytotoxicity fluorescence: 0.962
- compound: "C/C(=N\\NC(=O)c1cccc(S(=O)(=O)N2CCOCC2)c1)c1cc(Cl)ccc1O"
  subject.of.test: "Kasumi-1"
  CellTox Green cytotoxicity fluorescence: 0.96
- compound: "CC(C)(C)C[C@@H]1N[C@@H](C(=O)N[C@H]2CC[C@H](O)CC2)[C@H](c2cccc(Cl)c2F)[C@]12C(=O)Nc1cc(Cl)ccc12"
  subject.of.test: "Kasumi-1"
  CellTox Green cytotoxicity fluorescence: 1.03

---

Tested on: Kasumi-1
Assay: CellTox Green cytotoxicity fluorescence relative to DMSO vehicle (fold of vehicle RFU); higher = more cell death (loss of membrane integrity), active = 2 or more
Details: 0.1 µM; 72 h
recorded.metric: CellTox Green cytotoxicity fluorescence

- molecule: "O=C1NC(=NCc2cccs2)S/C1=C\\c1ccc2ncccc2c1"
  measured.value: 1
- molecule: "O=C(COc1ccc(Cl)cc1)NC1CCC(NC(=O)COc2ccc(Cl)cc2)CC1 (stereo not given)"
  measured.value: 0.954
- molecule: "N#CC(=Cc1ccc(-c2cc(Cl)ccc2Cl)o1)C(=O)Nc1cccc2ncccc12"
  measured.value: 0.979
- molecule: "COc1ccc(CCNCc2ccc(OCc3ccc(Cl)nc3)c(OC)c2)cc1OC"
  measured.value: 0.949
- molecule: "CNC(=O)c1ccc(Nc2ncc(C(F)(F)F)c(NCc3nccnc3N(C)S(C)(=O)=O)n2)cc1"
  measured.value: 0.956

---

Test system: MV4-11
Assay: CellTox Green cytotoxicity fluorescence relative to DMSO vehicle (fold of vehicle RFU); higher = more cell death (loss of membrane integrity), active = 2 or more
Conditions: 0.1 µM; 24 h
Threshold check on CellTox Green cytotoxicity fluorescence: at or above 1 gives true (1), strictly below gives false (0).

- compound: "Nc1cccc2c1C(=O)N(C1CCC(=O)NC1=O)C2=O (stereo unspecified) [Pomalidomide]"
  qualitative.label: "true (1)"
- compound: "CC1(C)CC[C@]2(NC(=O)C(C)(F)F)CC[C@]3(C)[C@H](C(=O)C=C4[C@@]5(C)C=C(C#N)C(=O)C(C)(C)[C@@H]5CC[C@]43C)[C@@H]2C1 [Omaveloxolone]"
  qualitative.label: "false (0)"
- compound: "CN(C)CC[C@H](CSc1ccccc1)Nc1ccc(S(=O)(=O)NC(=O)c2ccc(N3CCN(Cc4ccccc4-c4ccc(Cl)cc4)CC3)cc2)cc1[N+](=O)[O-]"
  qualitative.label: "true (1)"
- compound: "O=C1CCC(N2C(=O)c3ccccc3C2=O)C(=O)N1 (stereo unspecified) [Thalidomide]"
  qualitative.label: "false (0)"
- compound: "CCN(CC)CCNC(=O)c1c(C)[nH]c(/C=C2\\C(=O)Nc3ccc(F)cc32)c1C [Sunitinib]"
  qualitative.label: "true (1)"
- compound: "CN1CCN(CCCNc2ncc(Cl)c(-c3cc4c(C(=O)NC5CC5)cccc4s3)n2)CC1"
  qualitative.label: "false (0)"
- compound: "Cc1nn(C)c(COc2ccc(N3CCN(S(=O)(=O)N(C)C)CC3)cc2)c1-c1cccc2c(CCCOc3cccc4ccccc34)c(C(=O)O)n(CCN3CCOCC3)c12"
  qualitative.label: "true (1)"
- compound: "CNC(=O)c1ccc(Nc2ncc(C(F)(F)F)c(NCc3nccnc3N(C)S(C)(=O)=O)n2)cc1 [Defactinib]"
  qualitative.label: "false (0)"
- compound: "CC(C)c1ccccc1Cc1cc(C(=O)Nc2ccc(S(=O)(=O)c3ccccc3C(C)(C)C)cc2)c(O)c(O)c1O"
  qualitative.label: "false (0)"

---

Test system: MV4-11
Assay: CellTox Green cytotoxicity fluorescence relative to DMSO vehicle (fold of vehicle RFU); higher = more cell death (loss of membrane integrity), active = 2 or more
Conditions: 1 µM; 24 h

- compound: "CNC(=O)c1ccc(Nc2ncc(C(F)(F)F)c(NCc3nccnc3N(C)S(C)(=O)=O)n2)cc1 [Defactinib]"
  CellTox Green cytotoxicity fluorescence: 1
- compound: "N#Cc1ccc(-c2c(-c3ncn[nH]3)sc(N3CCOCC3)c2C#N)c(F)c1"
  CellTox Green cytotoxicity fluorescence: 1.01
- compound: "CCCC[C@@H](C=O)NC(=O)[C@H](CC(C)C)NC(=O)OCc1ccccc1 [Calpeptin]"
  CellTox Green cytotoxicity fluorescence: 1.01
- compound: "Cc1c(C(=O)Nc2ccc(Oc3ccnc4[nH]cc(-c5ccccc5)c34)c(F)c2)c(=O)n(-c2ccc(F)cc2)n1C"
  CellTox Green cytotoxicity fluorescence: 1.03
- compound: "O=C1C(=O)N(Cc2ccc(Cl)c(Cl)c2)c2ccccc21 [Apoptosis Activator 2]"
  CellTox Green cytotoxicity fluorescence: 1.02
- compound: "COc1cc(C(=O)N2CCC(N3CCN(C)CC3)CC2)ccc1Nc1ncc2c(n1)N(C)c1ccccc1C(=O)N2C"
  CellTox Green cytotoxicity fluorescence: 1.02
- compound: "NS(=O)(=O)C#Cc1ccccc1 [Pifithrin-m]"
  CellTox Green cytotoxicity fluorescence: 1.02
- compound: "Cn1cc(-c2ccc3c(c2)CCN3C(=O)Cc2cccc(C(F)(F)F)c2)c2c(N)ncnc21"
  CellTox Green cytotoxicity fluorescence: 1.05
- compound: "COc1nc(OCc2cccc(-c3ccccc3)c2C)ccc1CNCCNC(C)=O [PD-1/PD-L1 inhibitor 2]"
  CellTox Green cytotoxicity fluorescence: 0.985
